Measured values drawn from the supplement of paper PMC9170038 for this set.

Test system: MS2 coat protein
Test: apparent KD of MS2 coat protein; designed switch direction (-1 OFF switch, 1 ON switch): -1; higher = weaker reporter binding
Details: input ligand: FMN 200 uM
Short version: apparent KD of MS2 coat protein at least 80 nM is MET, less is NOT MET.

INSERT INTO measurements (seq_string, class) VALUES
  ('AAACCGCAAGGAUAUACUUGCGGUGGUGUUCGAAACUUUCUACUUGAGGAUCACCCAAGUAGAAGGUGCGGUAA [jl-ex2.4.71 ViennaUCT mod] (Eterna round: R97, puzzle: Exclusion 2)', 'NOT MET'),
  ('UAUUGCAAGUGAGGAUAUGACAUGAGGAUCACCCAUGUAAAGGGAGUUGGCUAUAUAGCAAGAUAUCAGAAGGCACAACUGUAU [JR_ExcNG2_Sub005] (Eterna round: R96, puzzle: Exclusion NG 2)', 'NOT MET'),
  ('ACCUCACAUGAGGAUCACCCAUGUCAGGAUAUCUUUUAUUGCAGCAAUCCUGUCGCUGAGAGAAGGGACAUUAA [EX1 #26] (Eterna round: R97, puzzle: Exclusion 1)', 'NOT MET'),
  ('CAGCGUUCAGGAUAUACAUGAGGAUCACCCAUGUGUUCCAGCUAGGAAACUAGCAAAUGUAGAAGGGAACGCUG [Mat - Exclusion 3 - JL Mod - D1] (Eterna round: R97, puzzle: Exclusion 3)', 'MET');

Please find the next sequence below.
Is it the case that UACAUGAGGAUCACCCAUGUUUUGUCGUGUAUGGUAUUUAUCUAGGAUAUCAAUUUGUUUAUUUAUGAGAAGGAGAAUAUUAAU [JMF's solution 16] (Eterna round: R96, puzzle: Exclusion NG 3) has apparent KD of MS2 coat protein reaching or exceeding 80 nM?
NOT MET
